The origin of these recorded values is patent US20230348426A1.

- system.under.test: human FPR1 (Homo sapiens (Human), UniProt P21462)
- Sequence (P21462 whole entry): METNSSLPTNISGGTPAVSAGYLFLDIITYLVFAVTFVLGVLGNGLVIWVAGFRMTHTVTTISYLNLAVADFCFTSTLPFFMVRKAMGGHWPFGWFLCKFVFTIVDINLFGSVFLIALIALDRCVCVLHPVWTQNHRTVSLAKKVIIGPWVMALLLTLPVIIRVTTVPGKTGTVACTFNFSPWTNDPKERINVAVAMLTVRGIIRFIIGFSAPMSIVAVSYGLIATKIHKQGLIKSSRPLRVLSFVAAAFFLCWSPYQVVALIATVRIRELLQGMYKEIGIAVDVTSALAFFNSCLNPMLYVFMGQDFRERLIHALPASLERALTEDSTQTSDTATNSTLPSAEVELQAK
- experiment.notes: FPR1 cyclic adenosine monophosphate (cAMP) assay
- measurement.parameters: CHO cells overexpressing human FPR1; forskolin 10 µM; inhibition of cAMP production; read-out: hFPR1 cAMP EC50
result.type: pEC50
One number for each entry, as −log10 of the molar value.

Item: "COc1ccnc(N2C[C@@H](c3c(F)cc(OC)cc3F)[C@H](NC(=O)c3ccc(OC(F)(F)F)cc3)C2=O)c1" | pEC50: 5.82

Item: COc1cc(F)c([C@@H]2CN(c3cccn(C4CCOC4)c3=O)C(=O)[C@H]2NC(=O)c2ccc(OC(F)(F)F)cc2)c(F)c1 (stereo partly shown) | pEC50: 8.07

Item: "COc1ccc([C@@H]2CN(c3c(C)ccn(CCO)c3=O)C(=O)[C@H]2NC(=O)c2ccc(Cl)cc2)c(F)c1" | pEC50: 7.96

Item: "COc1cc(F)c([C@@H]2CN(c3cccc(N4C[C@H]5C[C@@H]4CO5)n3)C(=O)[C@H]2NC(=O)c2ccc(OC(F)F)cc2)c(F)c1" | pEC50: 7.60

Item: "COc1cc(F)c([C@@H]2CN(c3cccn(CCN4CC5(COC5)C4)c3=O)C(=O)[C@H]2NC(=O)c2ccc(OC(F)F)cc2)c(F)c1" | pEC50: 6.54

Hey, quick one: what's pEC50 for each of these?
1. COc1cc(F)c([C@H]2[C@H](NC(=O)c3ccc(OC(F)F)cc3)C(=O)N(c3cccc(C4CCCN(CCO)C4)n3)[C@H]2C)c(F)c1 (stereo partly shown) [Example 515]
2. COc1cc(F)c([C@@H]2CN(c3cncn(C4CCNC4)c3=O)C(=O)[C@H]2NC(=O)c2ccc(Cl)cc2)c(F)c1 (stereo partly shown) [Example 710]
3. COc1cc(F)c([C@@H]2CN(c3cccn(CC(O)CO)c3=O)C(=O)[C@H]2NC(=O)c2ccc(OC(F)(F)F)cc2)c(F)c1 (stereo partly shown) [Example 679]

[reply]
[5.66, 6.31, 7.55]
